# Measured on: Low molecular weight protein-tyrosine phosphatase A (Mycobacterium tuberculosis) (UniProt P9WIA1)
# Sequence (P9WIA1 whole entry): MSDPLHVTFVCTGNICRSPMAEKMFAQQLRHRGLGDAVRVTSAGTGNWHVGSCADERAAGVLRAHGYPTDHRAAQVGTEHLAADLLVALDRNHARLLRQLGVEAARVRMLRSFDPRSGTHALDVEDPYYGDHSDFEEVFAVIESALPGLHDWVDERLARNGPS
# Assay text: Inhibition of Mycobacterium tuberculosis recombinant protein tyrosine phosphatase assessed as enzyme activity at 25 uM
# Set-up: scale not given: the % may be the effect or the level left
Field: label. Allowed values: MET (Activity < 80%) or NOT MET (Activity >= 80%).

chemical_string=O=C(/C=C/c1cccc2ccccc12)c1cccc([N+](=O)[O-])c1 group="NOT MET"
chemical_string=O=C(/C=C/c1cccc2ccccc12)c1ccccc1O group=MET
chemical_string=O=C(/C=C/c1cccc2ccccc12)c1ccccc1 group=MET
chemical_string=COc1cc(OC)c(C(=O)/C=C/c2cccc(Cl)c2)c(OC)c1 group="NOT MET"
chemical_string=COc1ccc(C(=O)/C=C/c2ccc3ccccc3c2)cc1OC group=MET
chemical_string=COc1ccc(C(=O)/C=C/c2cccc3ccccc23)cc1 group="NOT MET"
chemical_string=COc1cc(OC)c(C(=O)/C=C/c2ccc(Cl)c(Cl)c2)c(OC)c1 group="NOT MET"
chemical_string=O=C(/C=C/c1ccc2c(c1)OCO2)c1ccccc1 group="NOT MET"
